- assaySummary: Thermal gravimetric analysis under nitrogen (thermal stability of diazeniumdiolates)
- Assay type: physicochemical
- reportedConditions: nitrogen atmosphere
measure: TNO loss (stable up to) (°C)

CCNCCCCCCN(CC)/[N+]([O-])=N/O [Compound 2b] | 104
CNCCCCCCN(C)/[N+]([O-])=N/O [Compound 2a] | 104
CCCNCCCCCCN(CCC)/[N+]([O-])=N/O [Compound 2c] | 104
CCCCNCCCCCCN(CCCC)/[N+]([O-])=N/O [Compound 2d] | 104
CCCCCNCCCCCCN(CCCCC)/[N+]([O-])=N/O [Compound 2e] | 104

====

- reportedConditions: buffer, pH 7.4
measure: t1/2 ("apparent" t1/2 and t1/2) (min)

CCCCNCCCCCCN(CCCC)/[N+]([O-])=N/O [Compound 2d] | 4.95
CCNCCCCCCN(CC)/[N+]([O-])=N/O [Compound 2b] | 5.78
CCCCCNCCCCCCN(CCCCC)/[N+]([O-])=N/O [Compound 2e] | 4.65

I: CCCNCCCCCCN(CCC)/[N+]([O-])=N/O [Compound 2c]
II: CNCCCCCCN(C)/[N+]([O-])=N/O [Compound 2a]
(Q) Of I versus II , which is the one with smaller reported t1/2 ("apparent" t1/2 and t1/2)? Lab log: write the label of the selected item as the result.
(A) II
